Values compiled from PubChem BioAssay.

Test: reduced viability of SK-BR-3 breast cancer cells – cell-based, 24 h, human, pilot screen (AID 572);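 note: compound exposure lasted between 18 and 24 h rather than exactly 24 h; 100% = carrier-treated control wells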
Settings: SK-BR-3 viability, CellTiter-Glo luminescence, at 10 µM, stronger effect = lower value
Please provide measured viability for the entries that follow.
One number for each entry, in %.

COC(=O)c1ccc(NC(=O)C2C3CCC(C3)C2C(=O)O)cc1 (configuration not stated) | 96
N#Cc1cc2c(nc1SCC(=O)N1CCCCC1)CCCC2 | 85
CCN1CCN(CCCNC(=O)c2cc3sccc3n2CC)CC1 | 96.5
NC(=O)C1CCN(C(=O)c2cc3n(n2)C(C(F)(F)F)CC(c2ccco2)N3)CC1 (configuration not stated) | 84

Hi! Can you tell me viability for each of these compounds?
1. O=C(CCNS(=O)(=O)c1cccs1)Nc1ccccc1F
2. CN(C)C(=O)N1CCN(C(=O)c2ccco2)CC1
3. CCCn1c(NCc2cc(C)ccc2O)nc2ccccc21
4. CCC(C)(NC(=O)CNC(C)=O)C(=O)NC1CCCCC1 (configuration not stated)
5. CCOC(=O)C1=C(C)NC(=O)NC1c1ccc(OCCO)c(OC)c1 (configuration not stated)
6. CC1CCN(S(=O)(=O)c2cccc(C(=O)Nc3ccccn3)c2)CC1
7. CCC(CC)C(=O)NCCc1cc2ccc(C)cc2[nH]c1=O
8. COc1ccc(CNC(=O)c2cnc3n(c2=O)CCS3)cc1

[81, 116, 94.5, 130, 92.5, 86, 99, 81.5]

###

Test: MRP1 drug-resistance reversers in H69AR cells – cell-based, doxorubicin co-treatment, pilot screen (AID 601)
Conditions: H69AR cells + 2 uM doxorubicin, CellTiter-Glo, 72 h; measured here: viability with 2 uM doxorubicin; at 10 µM; stronger effect = lower value
Lab note: anything with viability below 90% is marked Condition met; values at 90% or higher are marked Condition not met.

Quick check: does CCN(CC)S(=O)(=O)c1ccc2oc(C(=O)N3CCOCC3)c(C)c2c1 have viability under 90%?
Condition not met

Quick check: does CC1CCN(S(=O)(=O)c2cccc(C(=O)Nc3ccccn3)c2)CC1 have viability under 90%?
Condition not met

Quick check: does Cc1cc(C)c2c(=O)n(CC(=O)NCCCN3CCOCC3)sc2n1 have viability under 90%?
Condition met

Quick check: does COc1ccc(NC(=O)CSc2nnc(-c3ccccc3)n2N)cc1 have viability under 90%?
Condition met

###

Experiment: viability of PTEN-null HCT116 cells – cell-based, HCT116 clonal line, CellTiter-Glo, pilot screen (AID 824);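 note: 0% = 20 µM Hyamine control and 100% = vehicle cell control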
Settings: HCT116 PTEN-deleted viability, 60 h, at 10 µM, stronger effect = lower value
Inconclusive results are not listed.
Please provide measured viability for the entries that follow.
One number for each entry, in %.

Hi! Can you tell me viability for each of these compounds?
1. CCn1c(=O)cc(OCC(=O)Nc2nc(C)cs2)c2ccccc21
2. O=C(OCn1nnc2ccccc2c1=O)c1cc2ccccc2o1
3. O=C(NCC(c1ccc(F)cc1)N1CCOCC1)c1ccc(Br)o1 (stereo not given)
4. Cc1nc2c(-c3ccc(F)cc3)c(C)nn2c(C)c1CCC(=O)NC(C)CCc1ccco1 (stereo not given)
5. COc1ccc(OCCOC(=O)Nc2ccccc2)cc1

[86.9, 104, 81.8, 82.3, 94.1]

Hi! Can you tell me viability for each of these compounds?
1. Cc1ccc2[nH]c(=O)c3cc(C(=O)NCCN4CCN(C)CC4)sc3c2c1
2. CCOc1ccccc1NC(=O)C1CCCN(S(=O)(=O)c2cccc3cccnc23)C1 (stereo not given)
3. CCCn1nc2ccccc2c1P(=N)(N1CCOCC1)N1CCOCC1
4. CC1(C)CC(=O)c2cnc(NC(=O)CCc3ccccc3)nc2C1
5. COc1cccc(-n2c(=O)[nH]cc(C(=O)Nc3ccc4c(c3)OCCO4)c2=O)c1
6. COc1ccccc1N1CCN(C(=O)c2cc(C3CC3)on2)CC1
7. O=C(CSc1ncnc2c1oc1ccccc12)Nc1cccc(C(F)(F)F)c1

81.8
71.9
96.8
101
101
103
84

###

Test: S. cerevisiae growth inhibition in restrictive medium, OD615, pilot screen, restrictive growth control, yeast lifespan reduction project (AID 706);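 note: modified DeaD lifespan yeast strain shifted to restrictive glucose medium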
Details: OD615, 48 h, at 10 µM, stronger effect = higher value
The source made the active and inactive calls.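 How the source made its calls: active means growth inhibition above a set limit, 3 SD over mean compound inhibition, in both replicates (cut at about 43% in these data); inconclusive means above the limit in only one replicate; inactive means at or below the limit in both replicates.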
endpoint.label: growth inhibition

Example results:
CCCn1cc(SCC(N)=O)c2ccccc21 | -15.9% (inactive)
COc1ccc(C2CC(c3cccs3)n3nc(N)nc3N2)cc1 (stereo unspecified) | 17% (inactive)

Hi! Can you tell me growth inhibition for each of these compounds?
1. COc1ccc2[nH]c(C)c(CCN3C(=O)OC(C)(C)C3(C)O)c2c1 (stereo unspecified)
2. Cc1ccc(-c2nc(CS(=O)CC(=O)NCc3ccccn3)c(C)o2)cc1 (stereo unspecified)
3. Cc1cc2nc(-c3ccco3)cc(C(F)(F)F)n2n1
4. COc1ccc(OCc2nnc(SCC(=O)O)n2N)cc1

1. -5.26% (inactive)
2. 7.86% (inactive)
3. -8.99% (inactive)
4. 5.32% (inactive)

###

Please provide measured growth inhibition for the entries that follow.
Experiment: S. cerevisiae growth inhibition in restrictive medium, OD615, pilot screen, restrictive growth control, yeast lifespan reduction project (AID 706);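 note: modified DeaD lifespan yeast strain shifted to restrictive glucose medium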
Settings: OD615, 48 h, at 10 µM, stronger effect = higher value
Numbers only, in %.

COc1ccc(-c2cc(C(F)(F)F)nc(S(C)(=O)=O)n2)cc1OC | -9.75

Hi! Can you tell me growth inhibition for each of these compounds?
1. CC1CCN(C(=O)CSCC(=O)Nc2nc(-c3cccs3)cs2)CC1
2. CCOC(=O)c1cccc(NC(=O)CNS(=O)(=O)c2cccs2)c1
3. COc1ccc(CNC(=O)c2ccc3c(c2)N(C)C(=O)CS3=O)cc1 (stereo not given)
4. CCCn1nc(NC(=O)CC(C)C)c2cc3ccccc3nc21

-5.56
-4.69
7.29
-11.4

###

Please provide measured inhibition for the entries that follow.
Assay: RAM pathway blockade in budding yeast – dse1pr::URA3 reporter, 5-FOA selection, pilot screen (AID 869);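 note: 0% = DMSO wells with no growth and 100% = 10 µM 1-NA-PP1 with full growth; RAM network block rescues cells from 5-FOA so hits raise OD615 growth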
Settings: S. cerevisiae dse1pr::URA3 5-FOA growth, OD615, 2 d; at 10 µM; stronger effect = higher value; strain carries analog-sensitive mutant Cbk1 kinase
Give bare numbers, in %.

Example results:
CCCCOc1ccc(-c2ncc(Cl)cn2)cc1 | 1.26
CNC(=O)c1ccccc1NC(=O)c1c(O)c2c([nH]c1=O)CCCC2 | 1.7
COc1ccc(N(CC(=O)Nc2cc(C)ccc2C)S(=O)(=O)c2c(C)nn(C)c2C)cc1 | 0.14
Cc1nnc(NC(=O)CSc2nc3c(c(=O)n2C)SC(C)C3)s1 (stereo not drawn) | 2.09
COC(=O)CSC1=NS(=O)(=O)c2ccccc21 | -0.34

Hi! Can you tell me inhibition for each of these compounds?
1. CC1Cc2nc(SCC(N)=O)n(Cc3ccccc3)c(=O)c2S1 (stereo not drawn)
2. COc1ccc(OC)c(-c2nc(C(N)=O)c3[nH]c(=O)n(-c4ccc(F)cc4)c3n2)c1
3. CCN(CC)CCCNC(=O)c1cc2c(=O)n(C)c3ccccc3c2n1C

1.32
2.46
-0.125

Hi! Can you tell me inhibition for each of these compounds?
1. CC(=O)Nc1cccc(NC(=O)CSc2nn3c(=O)c(C)nnc3s2)c1
2. CN(CC(=O)N1CCCCC1)S(=O)(=O)c1cccc2cccnc12
3. c1ccc(Cn2nnc3c(N4CCCCCC4)ncnc32)cc1
4. CCNc1nnc(-c2ccccc2OC)s1
5. c1ccc(CN2CCN(CCCNc3ccc4nnc(-c5ccccc5)n4n3)CC2)cc1

1: 1.29; 2: 0.26; 3: 0.74; 4: -0.485; 5: 2.78

Hi! Can you tell me inhibition for each of these compounds?
1. Cc1cc(NS(=O)(=O)c2ccc(NC(=O)COc3ccccc3C(C)C)cc2)no1
2. CCOC(=O)N1CCC(c2cc(=O)n3[nH]c(C)c(-c4ccc(F)cc4)c3n2)CC1

2.17
0.04

Hi! Can you tell me inhibition for each of these compounds?
1. NC(=O)C1(N2CCCCC2)CCN(C(=O)c2ccccc2)CC1
2. COc1ccc(-c2nc(N3CCCC3)[nH]c(=O)c2C#N)cc1
3. CC1Cc2nc(SCC(=O)Nc3ccc4c(c3)OCO4)n(-c3ccc(F)cc3)c(=O)c2S1 (stereo not drawn)
4. CN(C)S(=O)(=O)c1ccc2c(c1)c(=O)c(C(=O)NCCCN1CCCCCC1)cn2C
5. O=C1NC2(Nc3ccccc31)C(=O)Nc1ccccc12 (stereo not drawn)
6. CCOC(=O)c1ccccc1NC(=O)C1COc2ccccc2O1 (stereo not drawn)
7. Cn1c(=O)c2c(nc(CN3CCN(Cc4ccccc4)CC3)n2Cc2ccc(Cl)cc2)n(C)c1=O

0.21
1.63
2
0.785
1.85
1.09
1.27

CC(C)(C)SCCNC(=O)CSc1ccccc1 has a reported inhibition of 0.055

###

Please provide measured growth inhibition for the entries that follow.
Test: S. cerevisiae growth inhibition in restrictive medium, OD615, pilot screen, restrictive growth control, yeast lifespan reduction project (AID 706);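 note: modified DeaD lifespan yeast strain shifted to restrictive glucose medium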
Details: OD615, 48 h, at 10 µM, stronger effect = higher value
Give bare numbers, in %.

Example results:
Cn1c(NC(=O)C2CCCC2)cc(=O)n(C)c1=O | -4.17
CC(C)C(CO)NC(=O)CC(=O)NC(CO)C(C)C (stereo not drawn) | -1.44
CC(=O)N(c1ccc(Br)cc1)C1C=CS(=O)(=O)C1 (stereo not drawn) | -16.4
Cn1cnc2cc(NC(=O)c3ccc(Cl)cc3)ccc21 | 7.51
CCn1cc(C(=O)NC2CCCCC2)c(=O)c2cc(S(=O)(=O)N(C)C)ccc21 | 2.4
Cc1ccc(C2c3c(oc4ccccc4c3=O)C(=O)N2c2nnc(C(C)C)s2)o1 (stereo not drawn) | -9.87
COc1ccc(N2CCN(CCCNS(=O)(=O)c3c(C)noc3/C=C/N(C)C)CC2)cc1 | 12
CCOC(=O)N1CCN(C(=O)c2ccc(CS(=O)(=O)c3ccc(OC)cc3)o2)CC1 | -27.2
Cc1cc(N2C(=O)C3C4c5ccccc5C(c5ccccc54)C3C2=O)no1 (stereo not drawn) | -12.7
Cc1cccc(Cn2c(SCC(=O)Nc3ccccc3)nc3c2c(=O)[nH]c(=O)n3C)c1 | -8.03

Hi! Can you tell me growth inhibition for each of these molecules?
1. COc1ccc(OC)c(S(=O)(=O)N2CCN(c3c(C)cccc3C)CC2)c1
2. CC1=C(C(=O)N2CCOCC2)C(c2cccs2)NC(=O)N1 (stereo not drawn)
3. CCOC(=O)c1[nH]c(C)c(C(=O)Nc2ccc(C)cc2C)c1C

1: 6.42; 2: -1.81; 3: -5.29

Hi! Can you tell me growth inhibition for each of these molecules?
1. Cc1ccccc1-c1nc(CN2CCC(C(=O)NC3CCN(Cc4ccccc4)CC3)CC2)c(C)o1
2. Cc1nc(CC(=O)c2c(C)cc(O)cc2O)cs1
3. O=C(Cn1cc2c(n1)CCCCC2)N1CCc2ccccc2C1
4. Cc1ccc(N=Cc2ccc(O)cc2O)cc1F
5. CCCn1c(NCc2cc(C)ccc2O)nc2ccccc21
6. O=C(CSc1oc(-c2ccccc2)nc1S(=O)(=O)c1ccc(F)cc1)NCC1CCCO1 (stereo not drawn)
7. O=C(c1cnn2c(C(F)(F)F)cc(-c3ccccc3)nc12)N1CCOCC1

1. -3.5
2. 1.06
3. 10.6
4. -25.5
5. -8.17
6. 0.925
7. -10

Hi! Can you tell me growth inhibition for each of these molecules?
1. Cc1ccccc1-n1c(Cn2c(=O)sc3ccccc32)nnc1SC(C)C
2. O=C(O)CN1C(=O)C2C3C=CC(C3)C2C1=O (stereo not drawn)
3. CCOc1ccccc1C(=O)Nc1cc(=O)n(C)c(=O)n1C

1: 6.75; 2: -14.5; 3: 2.84
